biological target: MDR1 (P-gp) (Homo sapiens); construct: host or cells: MDCK cells; test: MDR1-MDCK assay (efflux ratio); format: in vitro ADME; details: human, MDCK-MDR1, 1 μM compound, 120 minutes incubation; read-out: MDR1-MDCK Efflux Ratio; (B-A/A-B)
Sequence (P08183 whole entry): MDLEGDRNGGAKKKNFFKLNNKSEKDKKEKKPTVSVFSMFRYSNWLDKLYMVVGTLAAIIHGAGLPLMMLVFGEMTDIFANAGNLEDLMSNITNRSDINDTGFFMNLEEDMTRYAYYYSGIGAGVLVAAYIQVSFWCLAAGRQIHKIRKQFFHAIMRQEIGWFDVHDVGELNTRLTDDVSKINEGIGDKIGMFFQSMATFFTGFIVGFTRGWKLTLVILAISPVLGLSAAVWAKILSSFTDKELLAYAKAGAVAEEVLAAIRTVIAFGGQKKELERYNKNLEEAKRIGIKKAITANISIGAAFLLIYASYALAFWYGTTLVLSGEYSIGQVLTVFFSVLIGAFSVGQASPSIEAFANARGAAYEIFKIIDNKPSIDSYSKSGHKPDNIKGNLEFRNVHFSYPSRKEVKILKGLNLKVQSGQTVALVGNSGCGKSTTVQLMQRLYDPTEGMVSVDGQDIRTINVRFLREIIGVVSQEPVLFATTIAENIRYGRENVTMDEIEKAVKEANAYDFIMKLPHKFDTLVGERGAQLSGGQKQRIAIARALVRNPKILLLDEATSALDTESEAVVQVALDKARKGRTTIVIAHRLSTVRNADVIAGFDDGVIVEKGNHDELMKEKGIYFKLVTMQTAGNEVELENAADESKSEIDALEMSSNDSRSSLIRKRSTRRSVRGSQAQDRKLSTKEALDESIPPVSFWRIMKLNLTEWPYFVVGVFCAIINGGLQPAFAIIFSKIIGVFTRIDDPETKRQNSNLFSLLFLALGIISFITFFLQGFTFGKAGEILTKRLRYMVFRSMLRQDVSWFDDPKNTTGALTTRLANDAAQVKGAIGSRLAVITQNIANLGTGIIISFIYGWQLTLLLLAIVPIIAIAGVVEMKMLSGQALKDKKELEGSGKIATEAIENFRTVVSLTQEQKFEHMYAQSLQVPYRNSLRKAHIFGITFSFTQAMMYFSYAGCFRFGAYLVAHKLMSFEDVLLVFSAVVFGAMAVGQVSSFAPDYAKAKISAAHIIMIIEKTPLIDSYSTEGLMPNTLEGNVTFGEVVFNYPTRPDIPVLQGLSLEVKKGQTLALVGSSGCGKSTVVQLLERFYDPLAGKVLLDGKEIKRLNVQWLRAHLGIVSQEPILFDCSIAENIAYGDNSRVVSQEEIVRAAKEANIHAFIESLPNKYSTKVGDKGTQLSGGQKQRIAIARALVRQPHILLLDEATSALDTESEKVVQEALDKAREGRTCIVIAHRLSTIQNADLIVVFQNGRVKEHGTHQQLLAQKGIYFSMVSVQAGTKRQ
Kind request: treat 0.9 as inclusive, so efflux ratio at 120 min, 1 μM at 0.9 or higher is true, anything lower is false.

Does the reported efflux ratio at 120 min, 1 μM for COc1ncccc1NC(=O)c1cc2cn(CCC(C)(C)O)nc2nc1OC(C)C fall at or above the 0.9 mark?
true

Proceed to Cn1cccc(NC(=O)c2cc3cn(C[C@@H]4CCOC4)nc3nc2OC2CCCC2)c1=O (single isomer, unassigned)
true

And for COc1cccc(NC(=O)c2cc3cn(C45COC(C)(C4)C5)nc3cc2OC(C)C)n1 ?
false

Also, CC(C)Oc1nc2nn(C[C@H]3CCOC3)cc2cc1C(=O)Nc1cnn2cccnc12 (single isomer, unassigned) please.
true

Then this compound: CC(C)Oc1nc2nn(C[C@@H]3CCOC3)cc2cc1C(=O)Nc1cccc(C(F)F)n1 (single isomer, unassigned)
true

----------
Target: IRAK4 (Homo sapiens)
Construct: with 0.1 nM IRAK4, 1.6 μM of biotinylated peptide substrate and 10 μM ATP
Sequence (Q9NWZ3 whole entry): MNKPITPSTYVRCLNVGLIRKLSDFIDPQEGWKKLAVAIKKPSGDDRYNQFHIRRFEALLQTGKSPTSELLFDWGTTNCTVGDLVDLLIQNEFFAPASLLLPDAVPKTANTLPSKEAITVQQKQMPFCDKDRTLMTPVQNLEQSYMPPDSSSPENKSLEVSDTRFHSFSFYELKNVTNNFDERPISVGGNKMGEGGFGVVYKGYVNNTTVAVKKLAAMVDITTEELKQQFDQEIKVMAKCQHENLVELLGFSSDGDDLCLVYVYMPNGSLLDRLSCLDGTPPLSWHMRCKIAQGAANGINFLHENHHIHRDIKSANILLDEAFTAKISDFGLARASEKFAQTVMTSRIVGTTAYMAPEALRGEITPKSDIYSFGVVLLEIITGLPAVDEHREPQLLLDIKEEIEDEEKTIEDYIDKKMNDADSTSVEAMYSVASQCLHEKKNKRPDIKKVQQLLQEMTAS
Assay: IRAK4 MSD Biochemical Assay (1 mM ATP, 2 h)
Details: room temperature, read-out: IRAK4 MSD Biochemical Assay (1 mM ATP, 2 h) IC50
Procedure: The 2-hour 10 μM ATP Biochemical Assay employs a MesoScale Detection (MSD) format. The activity is quenched with 11 μl of 70 mM EDTA, pH 8. To detect the phosphorylated biotinylated peptide substrate, 30 μl of the quenched reaction mixture is added to equivalent wells of a 384 well streptavidin coated MesoScale plate (Meso Scale Discovery #L21SA-1). […]
Assign pIC50 to each entry below.
Give only the number. pIC50 is defined as minus log10 of concentration in molar units.

Suppose we examine the molecule CC(C)Oc1nc2nn(C[C@@H]3CCOC3)cc2cc1C(=O)Nc1cccc(C(F)F)n1 (single isomer, unassigned) [Example 107] ; what pIC50 value has been reported?
9.52

Next molecule up: CC(C)Oc1cc2nn(C3CCOCC3)cc2cc1C(=O)Nc1cnn2cccnc12 [Example 72]
9.10

Consider next the molecule CC(C)Oc1cc2nn(CCC(C)(C)O)cc2cc1C(=O)Nc1ccn(C(F)F)n1 [Example 33] in the same way.
8.37

Request: CC(C)Oc1cc2nn(C3CCOCC3)cc2cc1C(=O)Nc1cccnc1OC(F)F.Cl [Example 70, hydrochloride]
8.06

Okay, and Cc1cnc2c(NC(=O)c3cc4cn(C5CCCOC5)nc4nc3OC3CCC3)cnn2c1 (single isomer, unassigned) [Example 132] ?
10.00

Now consider COc1cccc(NC(=O)c2cc3cn(C[C@@H]4CCOC4)nc3cc2OC)n1 (single isomer, unassigned) [Example 22] and answer again.
8.04

// same read-out, input: CC(C)Oc1nc2nn(CC3CCOC3)cc2cc1C(=O)Nc1ccccn1 (stereo not shown) [Example 77]
7.87

----------
biological target: MDR1 (P-gp) (Homo sapiens); construct: host or cells: MDCK cells; experiment: MDR1-MDCK assay (efflux ratio); format: in vitro ADME; conditions: human, MDCK-MDR1, 1 μM compound, 120 minutes incubation; read-out: MDR1-MDCK Efflux Ratio; (B-A/A-B)
measurement_label: efflux ratio at 120 min, 1 μM

I have this molecule here, COCCCn1cc2cc(C(=O)Nc3cccc(OC)n3)c(OC(C)C)nc2n1.Cl [Example 61] , and I need its recorded efflux ratio at 120 min, 1 μM.
1.1

And then CC(C)Oc1cc2nn(C34CCC(C)(CC3)OC4)cc2cc1C(=O)Nc1ccn(C)n1 [Example 103] , what is it?
0.9

What do you get for CC(C)Oc1cc2nn([C@H]3CCOC3)cc2cc1C(=O)Nc1cccc(C(F)F)n1 (single isomer, unassigned) [Example 44] ?
0.8

Moving on to CC(C)Oc1cc2nn(C3CCOCC3)cc2cc1C(=O)Nc1cccc2ccnn12 [Example 51]
0.9

Next entry: COc1cccc(NC(=O)c2cc(OC)c3nn(CCC(C)(C)OC)cc3c2)n1.Cl [Example 15]
2.5

Another: CC12CCC(n3cc4cc(C(=O)Nc5ccn(C(F)F)n5)c(OC5CCC5)cc4n3)(CC1)CO2 [Example 139]
0.8

Follow-up entry: CC(C)Oc1cc2nn([C@@H]3CCCOC3)cc2cc1C(=O)Nc1cccc(C(F)F)n1 (single isomer, unassigned) [Example 43]
0.6

Also need Cn1cccc(NC(=O)c2cc3cn(C[C@H]4CCOC4)nc3nc2OC2CCC2)c1=O (single isomer, unassigned) [Example 112] , thanks.
8.3

Now consider CC(C)Oc1cc2nn([C@H]3CCOC(C)(C)C3)cc2cc1C(=O)Nc1cccc(C(F)F)n1 (single isomer, unassigned) [Example 47] .
1.5

Please give the result for CC(C)Oc1cc2nn(C34CCC(C)(C3)OC4)cc2cc1C(=O)Nc1cccc(C(F)F)n1 (stereo not drawn) [Example 97] too.
1.1

Same again, this time with CC(C)Oc1nc2nn(C3CCCOC3)cc2cc1C(=O)Nc1cnn2cccnc12 (stereo not drawn) [Example 36]
2.2

Also COc1cccc(NC(=O)c2cc3cn(CC4CCOC4)nc3cc2OC)n1.O=C(O)C(F)(F)F (stereo not drawn) [Example 1] , if possible.
1.1

Now consider COc1cccc(NC(=O)c2cc3cn(C[C@H]4CCOC4)nc3cc2OC)n1 (single isomer, unassigned) [Example 23] and answer again.
0.8

Now the molecule CC(C)Oc1cc2nn([C@@]34CC[C@@](C)(C3)OC4)cc2cc1C(=O)Nc1cnn2cccnc12 (single isomer, unassigned) [Example 128]
1.4

// query: Cc1cnc2c(NC(=O)c3cc4cn(C[C@H]5CCOC5)nc4nc3OC3CCC3)cnn2c1 (single isomer, unassigned) [Example 122]
4.2
